Reference source for all entries: patent US9751888B2

system.under.test: p110 δ (RAJI cells) (Homo sapiens (Human))
Sequence (O00329 whole entry): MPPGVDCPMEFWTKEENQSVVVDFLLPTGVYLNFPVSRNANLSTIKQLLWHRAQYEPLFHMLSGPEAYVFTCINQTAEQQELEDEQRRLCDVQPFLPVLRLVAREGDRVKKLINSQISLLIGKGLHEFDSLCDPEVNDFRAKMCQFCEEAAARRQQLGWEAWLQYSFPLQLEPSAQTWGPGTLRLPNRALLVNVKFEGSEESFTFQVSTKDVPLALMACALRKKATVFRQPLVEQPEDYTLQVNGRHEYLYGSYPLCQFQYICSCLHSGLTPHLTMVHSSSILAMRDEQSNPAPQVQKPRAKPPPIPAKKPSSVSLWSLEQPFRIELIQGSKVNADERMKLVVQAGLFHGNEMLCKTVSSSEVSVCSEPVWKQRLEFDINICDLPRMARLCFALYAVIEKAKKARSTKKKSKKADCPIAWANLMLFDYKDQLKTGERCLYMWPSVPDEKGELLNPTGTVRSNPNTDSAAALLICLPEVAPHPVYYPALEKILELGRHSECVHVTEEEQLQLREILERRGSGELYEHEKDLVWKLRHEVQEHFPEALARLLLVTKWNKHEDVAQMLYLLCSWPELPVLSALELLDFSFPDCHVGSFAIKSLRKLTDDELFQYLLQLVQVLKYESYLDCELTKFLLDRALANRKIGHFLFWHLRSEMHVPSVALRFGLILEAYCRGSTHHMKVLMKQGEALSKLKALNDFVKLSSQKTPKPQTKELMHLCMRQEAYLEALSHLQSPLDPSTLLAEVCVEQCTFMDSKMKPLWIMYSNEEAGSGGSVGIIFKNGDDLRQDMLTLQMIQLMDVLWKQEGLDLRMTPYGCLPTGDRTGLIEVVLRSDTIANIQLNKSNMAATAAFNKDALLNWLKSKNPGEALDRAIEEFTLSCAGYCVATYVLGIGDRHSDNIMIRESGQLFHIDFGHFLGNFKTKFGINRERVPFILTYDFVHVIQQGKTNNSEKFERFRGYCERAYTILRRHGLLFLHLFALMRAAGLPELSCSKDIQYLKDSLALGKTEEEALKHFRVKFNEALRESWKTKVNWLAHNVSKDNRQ
Sequence (P27986 whole entry partner): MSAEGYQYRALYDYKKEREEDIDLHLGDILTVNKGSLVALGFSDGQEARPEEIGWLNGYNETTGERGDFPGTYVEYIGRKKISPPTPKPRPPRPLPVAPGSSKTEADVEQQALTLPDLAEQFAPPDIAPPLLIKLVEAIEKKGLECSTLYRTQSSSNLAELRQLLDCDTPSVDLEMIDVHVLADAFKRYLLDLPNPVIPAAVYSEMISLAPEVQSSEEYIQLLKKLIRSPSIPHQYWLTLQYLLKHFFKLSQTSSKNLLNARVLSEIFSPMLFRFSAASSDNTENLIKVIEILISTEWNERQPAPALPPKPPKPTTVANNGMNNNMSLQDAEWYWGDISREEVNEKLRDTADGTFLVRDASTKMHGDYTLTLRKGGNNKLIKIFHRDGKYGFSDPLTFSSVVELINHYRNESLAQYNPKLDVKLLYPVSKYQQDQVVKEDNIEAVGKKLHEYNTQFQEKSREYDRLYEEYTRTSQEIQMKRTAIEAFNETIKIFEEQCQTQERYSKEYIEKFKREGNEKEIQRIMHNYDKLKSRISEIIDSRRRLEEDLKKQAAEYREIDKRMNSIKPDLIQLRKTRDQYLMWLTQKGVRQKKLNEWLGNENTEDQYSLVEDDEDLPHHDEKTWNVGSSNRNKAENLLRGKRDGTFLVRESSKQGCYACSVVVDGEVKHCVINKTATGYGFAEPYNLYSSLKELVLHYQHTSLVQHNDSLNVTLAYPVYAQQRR
assay.notes: PI3K-δ selective cellular assay: phospho-AKT in anti-human IgM stimulated RAJI cells
measurement.setup: serum-starved RAJI cells stimulated with anti-human IgM

compound	system.under.test	IC50
C[C@H](NC(=O)c1nccnc1N)c1nc2cccc(Cl)c2c(=O)n1-c1ccc(F)cc1 [Compound 46]	p110 δ (RAJI cells) (Homo sapiens (Human))	1 to 10 nM
Cc1cccc(-n2c([C@H](C)NC(=O)c3c(N)nn4cccnc34)cc3cccc(Cl)c3c2=O)c1 [Compound 74]	p110 δ (RAJI cells) (Homo sapiens (Human))	10 to 100 nM
C[C@H](NC(=O)c1c(N)nn2cccnc12)c1cc2cccc(Cl)c2c(=O)n1-c1ccccc1S(C)(=O)=O [Compound 83]	p110 δ (RAJI cells) (Homo sapiens (Human))	1000 to 10000 nM
C[C@H](NC(=O)c1c(N)nn2cccnc12)c1cc2cccc(Cl)c2c(=O)n1CCS(=O)(=O)N(C)C [Compound 58]	p110 δ (RAJI cells) (Homo sapiens (Human))	10 to 100 nM
CCn1cc(-c2cccc3cc([C@H](C)NC(=O)c4c(N)nn5cccnc45)n(-c4ccccc4)c(=O)c23)cn1 [Compound 5]	p110 δ (RAJI cells) (Homo sapiens (Human))	100 to 500 nM
C[C@H](NC(=O)c1c(N)nn2cccnc12)c1cc2cccc(Cl)c2c(=O)n1CCc1nnn(C)n1 [Compound 56]	p110 δ (RAJI cells) (Homo sapiens (Human))	10 to 100 nM
C[C@H](NC(=O)c1c(N)nn2cccnc12)c1nc2cccc(N3CCOCC3)c2c(=O)n1-c1ccccc1 [Compound 90]	p110 δ (RAJI cells) (Homo sapiens (Human))	1000 to 10000 nM

* * *

Measured pIC50 accompanies every entry in the list below.
system.under.test: human Class I PI3 kinase δ (Homo sapiens (Human))
Sequence (O00329 whole entry, canonical isoform): as the sequence (O00329 whole entry) above
Sequence (P27986 whole entry partner, canonical isoform): as the sequence (P27986 whole entry partner) above
assay.notes: PI3-Kinase Promega ADP-Glo Max assay, δ isoform
Format: biochemical
measurement.setup: 20 nM kinase, 3 mM ATP, 500 uM diC8-PtdInsP; read-out: Promega δ PI3K IC50
pIC50: −log10 of the molar value.

compound.structure	system.under.test	pIC50
C[C@H](NC(=O)c1c(N)nn2cccnc12)c1nc2c(Cl)cccc2c(=O)n1-c1ccccc1	human Class I PI3 kinase δ (Homo sapiens (Human))	5.00 to 6.00
C[C@H](NC(=O)c1c(N)nn2cccnc12)c1cc2cccc(Cl)c2c(=O)n1CCNS(C)(=O)=O	human Class I PI3 kinase δ (Homo sapiens (Human))	5.00 to 6.00
C[C@H](NC(=O)c1c(N)nn2cccnc12)c1cc2cccc(Cl)c2c(=O)n1CCS(=O)(=O)N(C)C	human Class I PI3 kinase δ (Homo sapiens (Human))	6.30 to 7.00
C[C@H](NC(=O)c1nccnc1N)c1oc2ccc(F)cc2c(=O)c1-c1ccccc1	human Class I PI3 kinase δ (Homo sapiens (Human))	5.00 to 6.00
CCn1cc(-c2cccc3cc([C@H](C)NC(=O)c4c(N)nn5cccnc45)n(-c4ccccc4)c(=O)c23)cn1	human Class I PI3 kinase δ (Homo sapiens (Human))	5.00 to 6.00
C[C@H](NC(=O)c1c(N)nn2cccnc12)c1cc2cccc(CC(=O)C(C)(C)C)c2c(=O)n1-c1ccccc1	human Class I PI3 kinase δ (Homo sapiens (Human))	5.00 to 6.00
CNS(=O)(=O)CCn1c([C@H](C)NC(=O)c2c(N)nn3cccnc23)cc2cccc(Cl)c2c1=O	human Class I PI3 kinase δ (Homo sapiens (Human))	6.30 to 7.00
C[C@H](NC(=O)c1c(N)nn2cccnc12)c1cc2cccc(Cl)c2c(=O)n1CCCS(C)(=O)=O	human Class I PI3 kinase δ (Homo sapiens (Human))	5.00 to 6.00
C[C@H](NC(=O)c1c(N)nn2cccnc12)c1cc2cccc(Cl)c2c(=O)n1CCc1c[nH]cn1	human Class I PI3 kinase δ (Homo sapiens (Human))	5.00 to 6.00
Cc1cccc2c(=O)n(-c3ccccc3)c([C@H](C)NC(=O)c3c(N)nn4cccnc34)nc12	human Class I PI3 kinase δ (Homo sapiens (Human))	5.00 to 6.00
Cc1cccc(-n2c([C@H](C)NC(=O)c3c(N)nn4cccnc34)cc3cccc(Cl)c3c2=O)c1	human Class I PI3 kinase δ (Homo sapiens (Human))	6.00 to 6.30
C[C@H](NC(=O)c1c(N)nn2cccnc12)c1cc2cccc(Cl)c2c(=O)n1CCS(N)(=O)=O	human Class I PI3 kinase δ (Homo sapiens (Human))	5.00 to 6.00
Cc1ccnc2c(C(=O)N[C@@H](C)c3cc4cccc(Cl)c4c(=O)n3-c3ccccc3)c(N)nn12	human Class I PI3 kinase δ (Homo sapiens (Human))	5.00 to 6.00
C#CCCn1c([C@H](C)NC(=O)c2c(N)nn3cccnc23)cc2cccc(Cl)c2c1=O	human Class I PI3 kinase δ (Homo sapiens (Human))	5.00 to 6.00
C[C@H](NC(=O)c1c(N)nn2cccnc12)c1cc2cccc(Cl)c2c(=O)n1-c1cccc(O)c1	human Class I PI3 kinase δ (Homo sapiens (Human))	6.30 to 7.00
C[C@H](NC(=O)c1c(N)nn2cccnc12)c1oc2ccc(F)cc2c(=O)c1-c1ccccc1	human Class I PI3 kinase δ (Homo sapiens (Human))	5.00 to 6.00
C[C@H](NC(=O)c1c(N)nn2cccnc12)c1cc2cccc(Cl)c2c(=O)n1CCCNS(C)(=O)=O	human Class I PI3 kinase δ (Homo sapiens (Human))	6.30 to 7.00
C[C@H](NC(=O)c1c(N)nn2cccnc12)c1cc2cccc(OCC(F)(F)F)c2c(=O)n1-c1ccccc1	human Class I PI3 kinase δ (Homo sapiens (Human))	5.00 to 6.00
C[C@H](NC(=O)c1c(N)nn2cccnc12)c1nc2cccc(Cl)c2c(=O)n1-c1ccc(F)cc1	human Class I PI3 kinase δ (Homo sapiens (Human))	5.00 to 6.00
C[C@H](NC(=O)c1c(N)nn2cccnc12)c1cc2cccc(Cl)c2c(=O)n1-c1ccc(S(C)(=O)=O)cc1	human Class I PI3 kinase δ (Homo sapiens (Human))	5.00 to 6.00
C[C@H](NC(=O)c1c(N)nn2cccnc12)c1cc2cccc(Cl)c2c(=O)n1-c1cccc(NS(C)(=O)=O)c1	human Class I PI3 kinase δ (Homo sapiens (Human))	6.00 to 6.30
C[C@H](NC(=O)c1c(N)nn2cccnc12)c1nc2cccc(N3CCOCC3)c2c(=O)n1-c1ccccc1	human Class I PI3 kinase δ (Homo sapiens (Human))	5.00 to 6.00
Cc1ccc(-n2c([C@H](C)NC(=O)c3c(N)nn4cccnc34)cc3cccc(Cl)c3c2=O)cc1	human Class I PI3 kinase δ (Homo sapiens (Human))	5.00 to 6.00
C[C@H](NC(=O)c1c(N)nn2cccnc12)c1cc2cccc(-c3cnn(CC#N)c3)c2c(=O)n1-c1ccccc1	human Class I PI3 kinase δ (Homo sapiens (Human))	5.00 to 6.00
C[C@H](NC(=O)c1c(N)nn2cccnc12)c1cc2cccc(-c3cnn(CC(F)(F)F)c3)c2c(=O)n1-c1ccccc1	human Class I PI3 kinase δ (Homo sapiens (Human))	5.00 to 6.00
C[C@H](NC(=O)c1c(N)nn2cccnc12)c1cc2cccc(OCc3cnn(C)c3)c2c(=O)n1-c1ccccc1	human Class I PI3 kinase δ (Homo sapiens (Human))	5.00 to 6.00
C[C@H](NC(=O)c1c(N)nn2cccnc12)c1cc2cccc(Cl)c2c(=O)n1CCc1cnn[nH]1	human Class I PI3 kinase δ (Homo sapiens (Human))	5.00 to 6.00
C[C@H](NC(=O)c1c(N)nn2cccnc12)c1cc2cccc(Cl)c2c(=O)n1CCc1noc(C(C)(C)C)n1	human Class I PI3 kinase δ (Homo sapiens (Human))	5.00 to 6.00
COc1ccccc1-n1c([C@H](C)NC(=O)c2c(N)nn3cccnc23)cc2cccc(Cl)c2c1=O	human Class I PI3 kinase δ (Homo sapiens (Human))	6.00 to 6.30

* * *

system.under.test: p110 γ (RAW264.7 cells) (Mus musculus (Mouse), UniProt Q9JHG7)
Sequence (Q9JHG7 whole entry): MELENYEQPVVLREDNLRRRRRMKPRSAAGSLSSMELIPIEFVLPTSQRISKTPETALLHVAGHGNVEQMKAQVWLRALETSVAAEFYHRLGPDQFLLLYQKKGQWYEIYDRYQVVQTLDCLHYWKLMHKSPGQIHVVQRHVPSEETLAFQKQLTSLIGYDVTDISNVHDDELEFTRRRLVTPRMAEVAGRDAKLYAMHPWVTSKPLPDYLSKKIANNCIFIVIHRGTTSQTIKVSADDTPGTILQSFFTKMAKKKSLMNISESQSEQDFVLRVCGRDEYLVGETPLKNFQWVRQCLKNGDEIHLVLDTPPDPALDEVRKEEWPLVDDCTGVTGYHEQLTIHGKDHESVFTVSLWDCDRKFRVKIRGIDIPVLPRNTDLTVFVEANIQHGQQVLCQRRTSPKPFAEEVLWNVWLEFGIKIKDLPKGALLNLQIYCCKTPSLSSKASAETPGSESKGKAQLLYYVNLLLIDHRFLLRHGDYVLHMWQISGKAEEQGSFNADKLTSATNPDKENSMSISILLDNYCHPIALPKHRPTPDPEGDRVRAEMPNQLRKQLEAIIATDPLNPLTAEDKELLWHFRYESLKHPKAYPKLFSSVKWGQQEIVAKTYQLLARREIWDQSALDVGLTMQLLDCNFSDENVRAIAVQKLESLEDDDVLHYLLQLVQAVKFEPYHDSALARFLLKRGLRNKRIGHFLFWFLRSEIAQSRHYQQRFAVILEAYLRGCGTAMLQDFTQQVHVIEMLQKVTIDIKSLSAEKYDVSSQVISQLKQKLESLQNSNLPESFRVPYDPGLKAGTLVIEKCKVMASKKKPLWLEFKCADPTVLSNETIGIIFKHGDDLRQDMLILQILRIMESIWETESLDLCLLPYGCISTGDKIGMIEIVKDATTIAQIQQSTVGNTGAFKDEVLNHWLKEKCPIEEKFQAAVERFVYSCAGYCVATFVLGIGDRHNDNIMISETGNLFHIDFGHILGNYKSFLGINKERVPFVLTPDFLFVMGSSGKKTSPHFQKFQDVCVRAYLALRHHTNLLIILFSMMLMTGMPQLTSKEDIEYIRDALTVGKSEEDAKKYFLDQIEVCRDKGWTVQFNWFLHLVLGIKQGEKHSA
assay.notes: PI3K-γ selective cellular assay: phospho-AKT in C5a stimulated RAW264.7 macrophages
measurement.setup: serum-starved RAW264.7 cells stimulated with C5a
pIC50: −log10 of the molar value.
Measured pIC50 by item
measured.metric: pIC50

compound.structure	system.under.test	endpoint.value
Cc1ccnc2c(C(=O)N[C@@H](C)c3cc4cccc(Cl)c4c(=O)n3-c3ccccc3)c(N)nn12	p110 γ (RAW264.7 cells) (Mus musculus (Mouse), UniProt Q9JHG7)	7.00 to 8.00
C[C@H](NC(=O)c1c(N)nn2cccnc12)c1cc2cccc(Cl)c2c(=O)n1CCS(=O)(=O)N(C)C	p110 γ (RAW264.7 cells) (Mus musculus (Mouse), UniProt Q9JHG7)	8.00 to 9.00
C[C@H](NC(=O)c1c(N)nn2cccnc12)c1cc2cccc(Cl)c2c(=O)n1CCc1nnn(C)n1	p110 γ (RAW264.7 cells) (Mus musculus (Mouse), UniProt Q9JHG7)	6.30 to 7.00
C[C@H](NC(=O)c1c(N)nn2cccnc12)c1cc2cccc(Cl)c2c(=O)n1-c1ccc(S(C)(=O)=O)cc1	p110 γ (RAW264.7 cells) (Mus musculus (Mouse), UniProt Q9JHG7)	5.00 to 6.00
C[C@H](NC(=O)c1nccnc1N)c1nc2cccc(Cl)c2c(=O)n1-c1ccc(F)cc1	p110 γ (RAW264.7 cells) (Mus musculus (Mouse), UniProt Q9JHG7)	7.00 to 8.00
C[C@H](NC(=O)c1c(N)nn2cccnc12)c1nc2ccccc2c(=O)n1-c1ccccc1	p110 γ (RAW264.7 cells) (Mus musculus (Mouse), UniProt Q9JHG7)	7.00 to 8.00
C[C@H](NC(=O)c1c(N)nn2cccnc12)c1cc2cccc(Cl)c2c(=O)n1C1CCC1	p110 γ (RAW264.7 cells) (Mus musculus (Mouse), UniProt Q9JHG7)	7.00 to 8.00
CC(=O)Cc1cccc2nc([C@H](C)NC(=O)c3c(N)nn4cccnc34)n(-c3ccccc3)c(=O)c12	p110 γ (RAW264.7 cells) (Mus musculus (Mouse), UniProt Q9JHG7)	7.00 to 8.00
C[C@H](NC(=O)c1c(N)nn2cccnc12)c1cc2cccc(Cl)c2c(=O)n1-c1cccc(S(C)(=O)=O)c1	p110 γ (RAW264.7 cells) (Mus musculus (Mouse), UniProt Q9JHG7)	6.30 to 7.00
C[C@H](NC(=O)c1c(N)nn2cccnc12)c1cc2cccc(Cl)c2c(=O)n1-c1cccc(O)c1	p110 γ (RAW264.7 cells) (Mus musculus (Mouse), UniProt Q9JHG7)	7.00 to 8.00
C[C@H](NC(=O)c1c(N)nn2cccnc12)c1cc2cccc(Cl)c2c(=O)n1-c1ccccc1F	p110 γ (RAW264.7 cells) (Mus musculus (Mouse), UniProt Q9JHG7)	7.00 to 8.00
C[C@H](NC(=O)c1c(N)nn2cccnc12)c1cc2cccc(Cl)c2c(=O)n1CCCS(C)(=O)=O	p110 γ (RAW264.7 cells) (Mus musculus (Mouse), UniProt Q9JHG7)	6.30 to 7.00
C[C@H](NC(=O)c1c(N)nn2cccnc12)c1cc2cccc(OCC(F)(F)F)c2c(=O)n1-c1ccccc1	p110 γ (RAW264.7 cells) (Mus musculus (Mouse), UniProt Q9JHG7)	6.30 to 7.00
C[C@H](NC(=O)c1c(N)nn2cccnc12)c1cc2cccc(Cl)c2c(=O)n1-c1ccccc1S(C)(=O)=O	p110 γ (RAW264.7 cells) (Mus musculus (Mouse), UniProt Q9JHG7)	6.00 to 6.30
COc1ccccc1-n1c([C@H](C)NC(=O)c2c(N)nn3cccnc23)cc2cccc(Cl)c2c1=O	p110 γ (RAW264.7 cells) (Mus musculus (Mouse), UniProt Q9JHG7)	7.00 to 8.00
